What solubility (g/100 g solution) was measured for each of the following?
# experiment: xn = mol fraction of the nth substance listed, in the solute-free solvent
# assay context: 288.15 K; x2 = 0.3
Answers are plain numbers.

Could you report solubility (g/100 g solution) for every entry in the following list?
1. CN1CCN(C(=O)OC2c3nccnc3C(=O)N2c2ccc(Cl)cn2)CC1 (stereo not drawn) + CCO + O
2. CN1CCN(C(=O)OC2c3nccnc3C(=O)N2c2ccc(Cl)cn2)CC1 (stereo not drawn) + CC(C)=O + O
3. CN1CCN(C(=O)OC2c3nccnc3C(=O)N2c2ccc(Cl)cn2)CC1 (stereo not drawn) + C1CCOC1 + O

[0.129, 0.188, 0.41]
